The reported measurements were obtained from patent US20260184697A1.

- target_of_assay: EZH1/SUZ/EED (Homo sapiens, UniProt O75530+Q15022+Q92800)
- Sequence (Q92800 2-747 limits assumed): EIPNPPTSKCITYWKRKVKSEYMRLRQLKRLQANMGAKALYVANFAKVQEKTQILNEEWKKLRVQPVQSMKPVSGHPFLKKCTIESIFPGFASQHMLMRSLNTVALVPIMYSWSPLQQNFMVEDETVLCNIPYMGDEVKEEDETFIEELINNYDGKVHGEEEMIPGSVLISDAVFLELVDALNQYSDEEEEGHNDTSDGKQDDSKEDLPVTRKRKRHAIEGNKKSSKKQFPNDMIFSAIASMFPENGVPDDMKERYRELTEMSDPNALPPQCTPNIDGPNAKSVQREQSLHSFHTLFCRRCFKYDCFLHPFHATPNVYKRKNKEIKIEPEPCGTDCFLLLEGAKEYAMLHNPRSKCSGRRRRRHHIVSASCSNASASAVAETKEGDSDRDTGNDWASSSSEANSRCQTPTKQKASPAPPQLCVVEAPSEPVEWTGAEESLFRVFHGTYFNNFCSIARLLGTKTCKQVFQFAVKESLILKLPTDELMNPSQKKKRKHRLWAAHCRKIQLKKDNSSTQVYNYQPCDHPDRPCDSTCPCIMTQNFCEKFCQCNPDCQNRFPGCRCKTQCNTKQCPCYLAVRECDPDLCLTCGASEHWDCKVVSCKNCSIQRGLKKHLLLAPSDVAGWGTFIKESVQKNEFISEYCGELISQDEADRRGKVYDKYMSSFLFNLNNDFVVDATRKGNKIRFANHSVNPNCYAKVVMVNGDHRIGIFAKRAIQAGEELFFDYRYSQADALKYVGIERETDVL
- Sequence (Q15022 2-739 partner limits assumed): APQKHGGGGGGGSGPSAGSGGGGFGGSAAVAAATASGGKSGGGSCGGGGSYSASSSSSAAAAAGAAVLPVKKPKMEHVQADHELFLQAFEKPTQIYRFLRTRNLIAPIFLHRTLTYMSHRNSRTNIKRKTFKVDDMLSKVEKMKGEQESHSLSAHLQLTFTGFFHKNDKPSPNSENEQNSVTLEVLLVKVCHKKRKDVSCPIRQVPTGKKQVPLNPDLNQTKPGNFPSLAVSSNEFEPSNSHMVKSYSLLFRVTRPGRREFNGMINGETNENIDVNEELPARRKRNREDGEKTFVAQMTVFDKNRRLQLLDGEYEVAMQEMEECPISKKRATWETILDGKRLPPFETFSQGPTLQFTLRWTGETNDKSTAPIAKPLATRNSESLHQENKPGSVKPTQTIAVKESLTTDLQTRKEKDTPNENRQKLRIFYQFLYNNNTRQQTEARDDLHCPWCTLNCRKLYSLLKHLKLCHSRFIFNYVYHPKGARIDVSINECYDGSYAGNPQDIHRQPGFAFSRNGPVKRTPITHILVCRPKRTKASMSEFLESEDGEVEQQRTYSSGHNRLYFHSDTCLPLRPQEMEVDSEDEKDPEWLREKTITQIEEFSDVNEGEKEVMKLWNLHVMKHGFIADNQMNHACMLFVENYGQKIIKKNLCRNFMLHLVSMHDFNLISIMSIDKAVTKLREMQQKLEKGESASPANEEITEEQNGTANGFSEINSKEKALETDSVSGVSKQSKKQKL
- Sequence (O75530 2-441 partner limits assumed): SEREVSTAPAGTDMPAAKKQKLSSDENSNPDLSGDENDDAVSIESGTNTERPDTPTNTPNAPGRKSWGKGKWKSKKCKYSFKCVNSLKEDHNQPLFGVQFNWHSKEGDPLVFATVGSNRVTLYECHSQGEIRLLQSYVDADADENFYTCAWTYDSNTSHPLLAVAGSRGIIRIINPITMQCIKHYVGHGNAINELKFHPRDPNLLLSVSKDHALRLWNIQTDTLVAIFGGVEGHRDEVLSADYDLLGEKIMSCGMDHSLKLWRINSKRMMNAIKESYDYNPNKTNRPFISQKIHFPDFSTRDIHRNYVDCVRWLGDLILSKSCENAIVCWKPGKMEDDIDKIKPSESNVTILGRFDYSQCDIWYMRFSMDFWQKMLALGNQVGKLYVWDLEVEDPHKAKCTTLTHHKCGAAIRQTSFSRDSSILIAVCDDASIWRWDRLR
- test_summary: Inhibitory effect on EZH1 by the MTase-Glo method (Test Example 1)
- conditions_used: EZH1/SUZ/EED 25 nM, H3 peptide 10 μM, SAM 3 μM, 30° C. 3 h, read-out: Test Example 1 WT EZH1 IC50
readout_type: IC50 (nM)

compound=CSc1cc(C)[nH]c(=O)c1CNC(=O)c1cc(Cl)c2c(c1C)O[C@@H]([C@H]1CC[C@H](N3CC4(CCO4)C3)CC1)CO2 endpoint_result=7.7

(A) COC1CN([C@H]2CC[C@@H]([C@H]3COc4c(Cl)cc(C(=O)NCc5c(SC)cc(C)[nH]c5=O)c(C)c4O3)CC2)C1
(B) Cc1cc(C)c(CNC(=O)c2cc(Cl)c3c(c2C)OC(C2CCC(N4CC(F)(F)C4)CC2)CO3)c(=O)[nH]1 (single isomer, unassigned) [Compound 58]
# input I would appreciate it if you could say which entry, A or B , has the lower IC50 value. Respond using the label that marks the chosen record.
# output A
(A: 6.2 nM, B: 2300 nM)

====

- target_of_assay: EZH1/SUZ/EED (Homo sapiens, UniProt O75530+Q15022+Q92800)
- test_summary: Inhibitory effect on EZH1 by the MTase-Glo method (Test Example 1)
- conditions_used: EZH1/SUZ/EED 25 nM, H3 peptide 10 μM, SAM 3 μM, 30° C. 3 h, read-out: Test Example 1 WT EZH1 IC50
readout_type: IC50 (nM)

molecule="Cc1cc(C)c(CNC(=O)c2c(C)c3c(c(Cl)c2F)OC[C@H](C2CCC(N(C)C)CC2)O3)c(=O)[nH]1 (stereo partly shown)" endpoint_result=201
molecule=CSc1cc(C)[nH]c(=O)c1CNC(=O)c1cc(C#N)c2c(c1C)O[C@@H]([C@H]1CC[C@@H](N3CC(OCCF)C3)CC1)CO2 endpoint_result=5.5
molecule="COc1c(Cl)c2c(c(C)c1C(=O)NCc1c(C)cc(C)[nH]c1=O)O[C@@H](C1CCC(N(C)C)CC1)CO2 (mixture of isomers)" endpoint_result=584
molecule="COc1cc(C)[nH]c(=O)c1CNC(=O)c1cc(Cl)c2c(c1C)O[C@@H]([C@H]1CC[C@H](N3CC4CC4C3)CC1)CO2 (stereo partly shown)" endpoint_result=267

(I) Cc1cc(C)c(CNC(=O)c2cc(Cl)c3c(c2C)O[C@@H](C2CCC(N(C)C)CC2)CO3)c(=O)[nH]1 (stereo partly shown)
(II) COC1CN([C@H]2CC[C@@H]([C@H]3COc4c(F)cc(C(=O)NCc5c(SC)cc(C)[nH]c5=O)c(C)c4O3)CC2)C1
# input I would appreciate it if you could say which entry, I or II , has the lower IC50 value. Respond using the label that marks the chosen record.
# output II

(P) Cc1cc(C)c(CNC(=O)c2cc(Cl)c3c(c2C)OC(C2CCC(N4CC(OC5CC5)C4)CC2)CO3)c(=O)[nH]1 (single isomer, unassigned) [Compound 77]
(Q) Cc1cc(C)c(CNC(=O)c2cc(Cl)c3c(c2C)O[C@H]([C@H]2CC[C@@H](N(C)C)CC2)CO3)c(=O)[nH]1
# input I would appreciate it if you could say which entry, P or Q , has the lower IC50 value. Respond using the label that marks the chosen record.
# output P
(P: 142 nM, Q: 400 nM)

====

- target_of_assay: EZH1/SUZ/EED (Homo sapiens, UniProt O75530+Q15022+Q92800)
- test_summary: Inhibitory effect on EZH1 by the MTase-Glo method (Test Example 1)
- conditions_used: EZH1/SUZ/EED 25 nM, H3 peptide 10 μM, SAM 3 μM, 30° C. 3 h, read-out: Test Example 1 WT EZH1 IC50
- Description: The compound was dissolved in DMSO, and the compound was serially diluted using ECHO665 and transferred to a 384-well reaction plate (Corning, 3824). […] After incubation, read with BMG PHERAStar. The luminescence signals obtained by positive control (maximum signal control) and negative control (minimum signal control) were normalized to obtain the inhibition rate of different concentrations of compounds. […]
pIC50: −log10 of the molar value.
readout_type: pIC50

Observe how each entry below is paired with its result.
compound="Cc1cc(C)c(CNC(=O)c2cc(Cl)c3c(c2C)OC(C2CCC(NC4CC(F)(F)C4)CC2)CO3)c(=O)[nH]1 (single isomer, unassigned) [Compound 66]" endpoint_result=6.16
compound="Cc1cc(C)c(CNC(=O)c2c(C)c3c(c(Cl)c2F)OC[C@H]([C@H]2CC[C@@H](N(C)C)CC2)O3)c(=O)[nH]1 [Compound 131]" endpoint_result=7.33
compound="COCCOC1CN([C@H]2CC[C@H]([C@H]3COc4c(Cl)cc(C(=O)NCc5c(OC)cc(C)[nH]c5=O)c(C)c4O3)CC2)C1 [Compound 102]" endpoint_result=6.18

(a) COCCN(C)[C@H]1CC[C@@H]([C@H]2COc3c(Cl)cc(C(=O)NCc4c(SC)cc(C)[nH]c4=O)c(C)c3O2)CC1 [Compound 26]
(b) Cc1cc(C)c(CNC(=O)c2cc(Cl)c3c(c2C)OC(C2CCC(NC4CC(F)(F)C4)CC2)CO3)c(=O)[nH]1 (single isomer, unassigned) [Compound 67]
# input When a and b are compared, which has the higher number for pIC50? Respond using the label that marks the chosen record.
# output a
(a: 8.27, b: 6.44)

====

- target_of_assay: EZH2/SUZ/EED (Homo sapiens, UniProt O75530+Q15022+Q15910)
- Sequence (Q15910 2-746 limits assumed): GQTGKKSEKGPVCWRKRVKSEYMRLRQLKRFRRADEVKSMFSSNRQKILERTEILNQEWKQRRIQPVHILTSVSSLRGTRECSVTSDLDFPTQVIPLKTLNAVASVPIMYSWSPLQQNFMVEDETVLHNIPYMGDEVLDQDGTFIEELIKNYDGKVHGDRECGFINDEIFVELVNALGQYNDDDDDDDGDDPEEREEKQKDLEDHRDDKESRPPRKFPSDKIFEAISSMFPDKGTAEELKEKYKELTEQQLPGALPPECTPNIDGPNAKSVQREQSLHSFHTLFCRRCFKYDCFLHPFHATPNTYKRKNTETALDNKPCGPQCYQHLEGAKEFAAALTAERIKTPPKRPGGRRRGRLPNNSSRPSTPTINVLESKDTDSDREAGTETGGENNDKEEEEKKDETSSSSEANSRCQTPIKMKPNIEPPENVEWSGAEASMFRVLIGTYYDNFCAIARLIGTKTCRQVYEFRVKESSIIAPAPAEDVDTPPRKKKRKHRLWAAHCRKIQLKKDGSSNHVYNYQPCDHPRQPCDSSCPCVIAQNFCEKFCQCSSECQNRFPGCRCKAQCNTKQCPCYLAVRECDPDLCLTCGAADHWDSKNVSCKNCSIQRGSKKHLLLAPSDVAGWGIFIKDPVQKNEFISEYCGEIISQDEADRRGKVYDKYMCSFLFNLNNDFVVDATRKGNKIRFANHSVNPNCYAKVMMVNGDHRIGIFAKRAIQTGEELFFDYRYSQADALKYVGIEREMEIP
- Sequence (Q15022 2-739 partner limits assumed): as the sequence (Q15022 2-739 partner limits assumed) above
- Sequence (O75530 2-441 partner limits assumed): as the sequence (O75530 2-441 partner limits assumed) above
- test_summary: Inhibitory effect on EZH2 by the MTase-Glo method (Test Example 1)
- conditions_used: EZH2/SUZ/EED 6.25 nM, H3 peptide 10 μM, SAM 3 μM, 30° C. 3 h, read-out: Test Example 1 WT EZH2 IC50
pIC50: −log10 of the molar value.
readout_type: pIC50

Observe how each entry below is paired with its result.
compound=COc1cc(C)[nH]c(=O)c1CNC(=O)c1cc(Cl)c2c(c1C)O[C@@H]([C@H]1CC[C@@H](N3CC4(CC4)C3)CC1)CO2 endpoint_result=7.87
compound="CSc1cc(C)[nH]c(=O)c1CNC(=O)c1cc(Cl)c2c(c1C)OC(C1CCN(CC3CC3)CC1)CO2 (stereo not shown)" endpoint_result=8.28

(a) COC1(C(F)(F)F)CN(C2CCC(C3COc4c(Cl)cc(C(=O)NCc5c(C)cc(C)[nH]c5=O)c(C)c4O3)CC2)C1 (single isomer, unassigned) [Compound 69]
(b) Cc1cc(C)c(CNC(=O)c2cc(Cl)c3c(c2C)OC(C2CCC(N4CCCC4)CC2)CO3)c(=O)[nH]1 (stereo not shown)
(c) Cc1cc(C)c(CNC(=O)c2cc(Cl)c3c(c2C)O[C@@H]([C@H]2CC[C@@H](N4CC5COCC5C4)CC2)CO3)c(=O)[nH]1 (stereo partly shown)
(d) Cc1cc(C)c(CNC(=O)c2cc(Cl)c3c(c2C)OC(C2CCC(N4CCOCC4)CC2)CO3)c(=O)[nH]1 (single isomer, unassigned)
(e) Cc1cc(C)c(CNC(=O)c2cc(Cl)c3c(c2C)O[C@H](C2CCN(CC4COC4)CC2)CO3)c(=O)[nH]1
# input Task for the reader: rank each entry by its pIC50, from the minimum upward. Would you mind listing the labels in the order asked for?
# output e, a, c, d, b

(A) COc1cc(C)[nH]c(=O)c1CNC(=O)c1cc(Cl)c2c(c1C)O[C@H]([C@H]1CC[C@H](N3CC(OC)C3)CC1)CO2
(B) CSc1cc(C)[nH]c(=O)c1CNC(=O)c1cc(Cl)c2c(c1C)O[C@@H]([C@H]1CC[C@@H](N3CC4(COC4)C3)CC1)CO2
# input I would appreciate it if you could say which entry, A or B , has the lower pIC50 value. Respond using the label that marks the chosen record.
# output A

(I) COCCN(C)[C@H]1CC[C@@H]([C@H]2COc3c(Cl)cc(C(=O)NCc4c(SC)cc(C)[nH]c4=O)c(C)c3O2)CC1
(II) COCCN(C)[C@H]1CC[C@H]([C@H]2COc3c(Cl)cc(C(=O)NCc4c(OC)cc(C)[nH]c4=O)c(C)c3O2)CC1
(III) Cc1cc(C)c(CNC(=O)c2cc(Cl)c3c(c2C)OC(C2CCC(N4CC(F)(F)C4)CC2)CO3)c(=O)[nH]1 (single isomer, unassigned) [Compound 57]
(IV) COC1CN([C@H]2CC[C@@H]([C@H]3COc4c(Cl)cc(C(=O)NCc5c([S+](C)[O-])cc(C)[nH]c5=O)c(C)c4O3)CC2)C1 (stereo partly shown)
(V) Cc1cc(C)c(CNC(=O)c2cc(Cl)c3c(c2C)OC(C2CCN(C(C)C)CC2)CO3)c(=O)[nH]1 (stereo not shown)
# input Task for the reader: rank each entry by its pIC50, from the minimum upward. Would you mind listing the labels in the order asked for?
# output IV, V, III, II, I
